# Experimental Protocol: NCI Yeast Anticancer Drug Screen. Data for the mec2-1 strain (AID 157)
# Measurement Context: S. cerevisiae mec2-1 strain, at 50.0 µM, stronger effect = higher value
This is part of a sample that, as a whole, favours compounds with a hit. Of some 79,000 tested, about 15% had one in any assay.
Give measured growth inhibition for each item. Keep answers brief.
Answers are plain numbers, in %.

>  <Compound>
C=CCOc1cc(=O)[nH]c2ccccc12

>  <growth inhibition, %>
-4.4

$$$$
>  <Compound>
Oc1ccc2c(c1)CCC2

>  <growth inhibition, %>
-1.95

$$$$
>  <Compound>
CCOC(=O)C(NC(=O)C(CCCCNP(=O)(OCC)OCC)NC(=O)C(C)NC(C)=O)C(C)C (stereo unspecified)

>  <growth inhibition, %>
-10.4

$$$$
>  <Compound>
CCN(CC)c1nc(=O)c(C(=O)C(C)(C)C)c(C(C)(C)C)o1

>  <growth inhibition, %>
-39

$$$$
>  <Compound>
CCCCCCCCCCCCc1ccc(CS)cc1

>  <growth inhibition, %>
36.3

$$$$

For every item in the list below, what is its measured growth inhibition?
1. Nc1nc2c(ncn2-c2cccc(Cl)c2)c(=O)[nH]1
2. OC(CNC1CCCCC1)(c1ccccc1)c1ccccc1
3. CN(C)c1cccc(/C=C(\C#N)c2ccccc2)c1
4. CC(=O)N/C(=C\c1ccccc1)C(N)=O

Reply:
[16.5, -8.35, 13.8, 12.9]

Each compound below has a reported value. Please supply its growth inhibition.
1. COC(=O)C(CC(=O)[C@H]1CC[C@H]2[C@@H]3CC=C4C[C@@H](OC(C)=O)CC[C@]4(C)[C@H]3CC[C@]12C)OC (stereo partly specified)
2. CC(=O)/C(=C/n1c(=S)sc2ccccc21)C(=O)Nc1ccccc1C

Reply:
8.6
0.9

====

# Experimental Protocol: NCI Yeast Anticancer Drug Screen. Data for the cln2 rad14 strain (AID 165);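 also: 0% = growth equal to vehicle treated cultures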
# Measurement Context: S. cerevisiae cln2 rad14 strain, at 50.0 µM, stronger effect = higher value
The panel holds about 79,000 compounds, 15% with a hit somewhere; the sample as a whole holds those more often.
Recorded Endpoint: growth inhibition (%)
Numbers only, in %.

Guide cases for growth inhibition, answers given:
>  <Smiles Text>
O=C1CC[C@@H](NC(=O)Cc2ccccc2)C(=O)N1

>  <growth inhibition / %>
-6.75

$$$$
>  <Smiles Text>
COC(=O)/C=C/c1cc2c(cc1-c1c(C(=O)O)cc(OC)c(OC)c1OC)OCO2

>  <growth inhibition / %>
-3.4

$$$$
>  <Smiles Text>
CC(C)(C#N)OC(=O)Nc1cccc(Cl)c1

>  <growth inhibition / %>
-35.1

$$$$
>  <Smiles Text>
CC(C)c1nnc(NC(=O)CSC(=S)N2CCOCC2)s1

>  <growth inhibition / %>
-51.9

$$$$
>  <Smiles Text>
CC(=O)Nc1ccc2c(c1)CCCC2

>  <growth inhibition / %>
-71.6

$$$$

Okay, next one:
Ask: I would be grateful if you could share the reported growth inhibition for CNS(=O)(=O)c1ccccc1C(=N)c1ccccc1 .
Reply: -4.95

====

Give growth inhibition for every item shown.
# Experimental Protocol: NCI Yeast Anticancer Drug Screen. Data for the sgs1 mgt1 strain (AID 161);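 also: 0% = growth of cultures given vehicle only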
# Measurement Context: S. cerevisiae sgs1 mgt1 strain, at 50.0 µM, stronger effect = higher value
This is part of a sample that, as a whole, favours compounds with a hit. Of some 79,000 tested, about 15% had one in any assay.
Answers are plain numbers, in %.

Examples with their reported growth inhibition follow.
>  <Compound>
COc1nc2[nH]ccc2c(=O)n1C

>  <Measured Value>
-9.1

$$$$
>  <Compound>
Cc1ccc(S(=O)(=O)NC2C(=O)c3ccccc3C(=O)C2n2cnc3ccccc32)cc1 (stereo unspecified)

>  <Measured Value>
-10.9

$$$$
>  <Compound>
CC(C)c1nc2c(c(=O)o1)CCS2

>  <Measured Value>
-7.9

$$$$

Okay, here is my list. What is growth inhibition for each of these?
1. FC(F)(F)C(F)(F)C(F)(F)C(F)(F)C(F)(F)C(F)(F)C(F)(F)c1noc(C(F)(F)C(F)(F)C(F)(F)C(F)(F)C(F)(F)C(F)(F)C(F)(F)F)n1
2. NC(Cc1ccc(B(O)O)cc1)C(=O)O (stereo unspecified)
3. O=C(O)C1C(c2ccccc2)CC(=O)N1c1ccc(Cl)cc1 (stereo unspecified)
4. O=[N+]([O-])c1ccc2c(c1)Sc1ccccc1N2CCCCCl
5. O=C(O)C(CCc1cccc(Cl)c1)C(=O)O
6. CC(=O)Nc1ccc2c(c1)CCCC2
7. CCc1ccc(O)c(CN2CCN(Cc3cc(CC)ccc3O)CC2)c1
8. COC(=O)N1CCC(Sc2ccccc2)C2(CCSc3ccccc3)CCC=C12 (stereo unspecified)

Reply:
[-5.4, -29.5, 5.75, -49.2, -0.85, -0.8, 20.5, 5]

List the reported growth inhibition of each compound below.
1. CC(Cc1ccccc1)c1ccccc1 (stereo unspecified)
2. CCCCCCC(C)N1C(=O)c2ccccc2C1=O (stereo unspecified)
3. COc1cc(OC)c(OC(=O)CCl)c(OC)c1

Reply:
1: 10.7; 2: 4.75; 3: 3.2

These entries and their values trace back to PubChem BioAssay (NCI).
